# Assay explanation: Ex vivo biodistribution in normal mice
# Design: species or system ddY mice
# Condition context: i.v., 30 min after injection, mean (SD), 5 animals
Reported endpoint: Biodistribution of radioactivity, Liver

CN(C)c1ccc(-c2nc3ccc(C4=N[O][99Tc-]5(=[O])([NH]4)[NH2+]C(c4ccc6nc(-c7ccc(N(C)C)cc7)sc6c4)=N[O]5)cc3s2)cc1 [[^99mTc]BT2B]
31.45 (3.39) % injected dose per gram
CN(C)c1ccc(/C=C/c2ccc(C3=N[O][99Tc-]4(=[O])([NH]C(c5ccc(N(C)C)cc5)=N[O]4)[NH2+]3)cc2)cc1 (single isomer, unassigned) [[^99mTc]SB1A]
20.17 (3.18) % injected dose per gram
CN(C)c1ccc(C2=N[O][99Tc-]3(=[O])([NH]2)[NH2+]C(c2ccc4nc(-c5ccc(N(C)C)cc5)sc4c2)=N[O]3)cc1 [[^99mTc]BT1B]
27.06 (2.49) % injected dose per gram
CN(C)c1ccc(/C=C/c2ccc(C3=N[O][99Tc-]4(=[O])([NH]3)[NH2+]C(c3ccc(/C=C/c5ccc(N(C)C)cc5)cc3)=N[O]4)cc2)cc1 (single isomer, unassigned) [[^99mTc]SB2A]
27.04 (3.90) % injected dose per gram

----------
// reported Biodistribution of radioactivity, Kidney per item
# Assay explanation: Ex vivo biodistribution in normal mice
# Parameters: species or system ddY mice
# Condition context: i.v., 60 min after injection, mean (SD), 5 animals
Reported endpoint: Biodistribution of radioactivity, Kidney

CN(C)c1ccc(C2=N[O][99Tc-]3(=[O])([NH]2)[NH2+]C(c2ccc4nc(-c5ccc(N(C)C)cc5)sc4c2)=N[O]3)cc1 [[^99mTc]BT1B]
3.20 (0.45) % injected dose per gram
CN(C)c1ccc(/C=C/c2ccc(C3=N[O][99Tc-]4(=[O])([NH]3)[NH2+]C(c3ccc(/C=C/c5ccc(N(C)C)cc5)cc3)=N[O]4)cc2)cc1 (single isomer, unassigned) [[^99mTc]SB2A]
3.39 (0.20) % injected dose per gram
CN(C)c1ccc(/C=C/c2ccc(C3=N[O][99Tc-]4(=[O])([NH]C(c5ccc(N(C)C)cc5)=N[O]4)[NH2+]3)cc2)cc1 (single isomer, unassigned) [[^99mTc]SB1A]
9.66 (0.18) % injected dose per gram
CN(C)c1ccc(-c2nc3ccc(C4=N[O][99Tc-]5(=[O])([NH]4)[NH2+]C(c4ccc6nc(-c7ccc(N(C)C)cc7)sc6c4)=N[O]5)cc3s2)cc1 [[^99mTc]BT2B]
3.13 (0.48) % injected dose per gram

----------
# Assay explanation: Ex vivo biodistribution in normal mice
# Set-up: species or system ddY mice
# Condition context: i.v., 10 min after injection, mean (SD), 5 animals
Reported endpoint: Biodistribution of radioactivity, Kidney

CN(C)c1ccc(/C=C/c2ccc(C3=N[O][99Tc-]4(=[O])([NH]3)[NH2+]C(c3ccc(/C=C/c5ccc(N(C)C)cc5)cc3)=N[O]4)cc2)cc1 (single isomer, unassigned) [[^99mTc]SB2A]
3.57 (0.41) % injected dose per gram
CN(C)c1ccc(-c2nc3ccc(C4=N[O][99Tc-]5(=[O])([NH]4)[NH2+]C(c4ccc6nc(-c7ccc(N(C)C)cc7)sc6c4)=N[O]5)cc3s2)cc1 [[^99mTc]BT2B]
5.02 (0.40) % injected dose per gram
CN(C)c1ccc(C2=N[O][99Tc-]3(=[O])([NH]2)[NH2+]C(c2ccc4nc(-c5ccc(N(C)C)cc5)sc4c2)=N[O]3)cc1 [[^99mTc]BT1B]
4.29 (1.25) % injected dose per gram
CN(C)c1ccc(/C=C/c2ccc(C3=N[O][99Tc-]4(=[O])([NH]C(c5ccc(N(C)C)cc5)=N[O]4)[NH2+]3)cc2)cc1 (single isomer, unassigned) [[^99mTc]SB1A]
9.48 (1.28) % injected dose per gram
